All figures here come from patent US9732063B2.

The molecules listed here are annotated with their pIC50.
- Tested on: PBMCs
- assay_comment: IL-2 and IFN gamma release in CD3/CD28 stimulated PBMC cells
- Assay type: cell-based
- measurement_parameters: Homo sapiens, read-out: IC50 Values for Inhibition of Cytokine Release PBMCs IL-2
pIC50: −log10 of the molar value.

molecule: COCCOCCOCCOCCOCCOc1cc(Nc2nccc(Oc3ccc(NC(=O)Nc4cc(C(C)C)nn4-c4ccc(C)cc4)c4ccccc34)n2)cc(OC)c1 [Example 30]
pIC50: 7.56
//
molecule: COc1cc(Nc2nccc(Oc3ccc(NC(=O)Nc4cc(C(C)C)nn4-c4ccc(C)cc4)c4ccccc34)n2)cc(S(=O)(=O)C2CC2)c1 [Example 18]
pIC50: 7.07
//
molecule: COCCOCCOCCOc1cc(Nc2nccc(Oc3ccc(NC(=O)Nc4cc(C(C)(C)C)nn4-c4ccc(C)cc4)c4ccccc34)n2)cc(OC)c1 [Example 37]
pIC50: 7.46

###

- target_entity: Syk (Homo sapiens (Human))
pIC50: −log10 of the molar value.

query_smiles: C#Cc1cccc(Nc2nccc(Oc3ccc(NC(=O)Nc4cc(C(C)C)nn4-c4ccc(C)cc4)c4ccccc34)n2)c1
pIC50: 6.09
//
query_smiles: COCCOCCOCCOc1cc(Nc2nccc(Oc3ccc(NC(=O)Nc4cc(C(C)(C)C)nn4-c4ccc(C)cc4)c4ccccc34)n2)cc(OC)c1
pIC50: 7.44
//
query_smiles: COCCOCCOc1cc(Nc2nccc(Oc3ccc(NC(=O)Nc4cc(C(C)(C)C)nn4-c4ccc(C)cc4)c4ccccc34)n2)cc(OC)c1
pIC50: 7.52
//
query_smiles: COc1cc(Nc2nccc(Oc3ccc(NC(=O)Nc4cc(C(C)(C)C)nn4-c4ccc(C)cc4)c(Cl)c3Cl)n2)cc(OCCOCCOCCO)c1
pIC50: 7.64
//
query_smiles: COc1cc(Nc2nccc(Oc3ccc(NC(=O)Nc4cc(C(C)C)nn4-c4ccc(C)cc4)c4ccccc34)n2)cc(OCCOCCOCCO)c1
pIC50: 8.10
//
query_smiles: COc1cc(Nc2nccc(Oc3ccc(NC(=O)Nc4cc(C(C)(C)C)nn4-c4ccc(C)cc4)c4ccccc34)n2)cc(SCCCN2CCOCC2)c1
pIC50: 7.29

###

Reported pIC50 values, GSK3α (Homo sapiens (Human)).
pIC50: −log10 of the molar value.

query_smiles: COCCOCCOCCOc1cc(Nc2nccc(Oc3ccc(NC(=O)Nc4cc(C(C)(C)C)nn4-c4ccc(C)cc4)c4ccccc34)n2)cc(OC)n1
target_entity: GSK3α (Homo sapiens (Human))
inequality_operator: <
pIC50: 5.00
//
query_smiles: COc1ccc(-n2nc(C(C)(C)C)cc2NC(=O)Nc2ccc(Oc3ccnc(Nc4cccc(OC(N)=O)c4)n3)c3ccccc23)cn1
target_entity: GSK3α (Homo sapiens (Human))
inequality_operator: =
pIC50: 6.51
//
query_smiles: COCCOCCOCCOc1cc(Nc2nccc(Oc3ccc(NC(=O)Nc4cc(C(C)C)nn4-c4ccc(C)cc4)c4ccccc34)n2)cc(C(F)(F)F)c1
target_entity: GSK3α (Homo sapiens (Human))
inequality_operator: <
pIC50: 5.00
//
query_smiles: COCCOCCOCCOc1cc(Nc2nccc(Oc3ccc(NC(=O)Nc4cc(C(C)(C)C)nn4-c4ccc(C)cc4)c(Cl)c3Cl)n2)cc(OC)c1
target_entity: GSK3α (Homo sapiens (Human))
inequality_operator: <
pIC50: 5.00
//
query_smiles: COCCOCCOCCS(=O)(=O)c1cc(Nc2nccc(Oc3ccc(NC(=O)Nc4cc(C(C)C)nn4-c4ccc(C)cc4)c4ccccc34)n2)cc(OC)c1
target_entity: GSK3α (Homo sapiens (Human))
inequality_operator: =
pIC50: 6.22
//
query_smiles: COCCOCCOCCOc1cc(Nc2nccc(Oc3ccc(NC(=O)Nc4cc(C(C)C)nn4-c4ccc(C)cc4)c4ccccc34)n2)cc(OC(F)(F)F)c1
target_entity: GSK3α (Homo sapiens (Human))
inequality_operator: <
pIC50: 5.00
//
query_smiles: COCCOCCOCCOc1cc(Nc2nccc(Oc3ccc(NC(=O)Nc4cc(C(C)C)nn4-c4ccc(C)cc4)c(Cl)c3Cl)n2)cc(OC)c1
target_entity: GSK3α (Homo sapiens (Human))
inequality_operator: <
pIC50: 5.00
//
query_smiles: COc1ccc(-n2nc(C(C)(C)C)cc2NC(=O)Nc2ccc(Oc3ccnc(Nc4cc(OC)cc(S(=O)(=O)C5CC5)c4)n3)c3ccccc23)cc1
target_entity: GSK3α (Homo sapiens (Human))
inequality_operator: =
pIC50: 5.47
//
query_smiles: COc1cc(Nc2nccc(Oc3ccc(NC(=O)Nc4cc(C(C)(C)C)nn4-c4ccc(C)cc4)c4ccccc34)n2)cc(OCCCN2CCOCC2)c1
target_entity: GSK3α (Homo sapiens (Human))
inequality_operator: =
pIC50: 5.14
//
query_smiles: COCCOCCOCCOCCOCCOCCOCCOc1cc(Nc2nccc(Oc3ccc(NC(=O)Nc4cc(C(C)C)nn4-c4ccc(C)cc4)c4ccccc34)n2)cc(OC)c1
target_entity: GSK3α (Homo sapiens (Human))
inequality_operator: =
pIC50: 5.33
//
query_smiles: COCCOCCOCCSc1cc(Nc2nccc(Oc3ccc(NC(=O)Nc4cc(C(C)C)nn4-c4ccc(C)cc4)c4ccccc34)n2)cc(OC)c1
target_entity: GSK3α (Homo sapiens (Human))
inequality_operator: <
pIC50: 5.00
//
query_smiles: COCCOCCOc1cc(Nc2nccc(Oc3ccc(NC(=O)Nc4cc(C(C)(C)C)nn4-c4ccc(C)cc4)c4ccccc34)n2)cc(OC)c1
target_entity: GSK3α (Homo sapiens (Human))
inequality_operator: <
pIC50: 5.00

###

Reported IC50 values, GSK3α (Homo sapiens (Human), UniProt P49840).

molecule: COc1cc(Nc2nccc(Oc3ccc(NC(=O)Nc4cc(C(C)C)nn4-c4ccc(C)cc4)c(Cl)c3Cl)n2)cc(S(=O)(=O)C2CC2)c1
target_entity: GSK3α (Homo sapiens (Human), UniProt P49840)
Sequence (P49840 whole entry): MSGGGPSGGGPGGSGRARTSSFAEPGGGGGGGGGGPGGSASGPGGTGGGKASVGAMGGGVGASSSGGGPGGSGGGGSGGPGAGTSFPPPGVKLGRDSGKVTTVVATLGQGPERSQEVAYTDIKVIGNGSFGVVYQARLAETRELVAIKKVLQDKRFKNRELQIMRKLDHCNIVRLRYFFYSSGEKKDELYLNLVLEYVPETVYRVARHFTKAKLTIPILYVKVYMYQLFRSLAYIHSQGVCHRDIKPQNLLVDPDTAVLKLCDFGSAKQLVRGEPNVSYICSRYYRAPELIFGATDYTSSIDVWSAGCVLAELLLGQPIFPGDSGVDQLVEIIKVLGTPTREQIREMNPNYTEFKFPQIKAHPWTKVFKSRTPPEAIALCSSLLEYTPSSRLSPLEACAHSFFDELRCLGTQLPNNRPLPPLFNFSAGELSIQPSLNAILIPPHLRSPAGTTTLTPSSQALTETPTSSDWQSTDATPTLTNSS
inequality_operator: =
IC50 (nM): 1400
--
molecule: COc1cc(Nc2nccc(Oc3ccc(NC(=O)Nc4cc(C(C)(C)C)nn4-c4ccc(C)cc4)c4ccccc34)n2)cc(S(=O)(=O)CCCN2CCOCC2)c1
target_entity: GSK3α (Homo sapiens (Human), UniProt P49840)
inequality_operator: =
IC50 (nM): 531
--
molecule: COc1ccc(-n2nc(C(C)(C)C)cc2NC(=O)Nc2ccc(Oc3ccnc(Nc4cccc(SCCO)c4)n3)c3ccccc23)cn1
target_entity: GSK3α (Homo sapiens (Human), UniProt P49840)
inequality_operator: =
IC50 (nM): 501
--
molecule: COc1cc(Nc2nccc(Oc3ccc(NC(=O)Nc4cc(C(C)C)nn4-c4ccc(C)cc4)c4ccccc34)n2)cc(OCCN2CCOCC2)c1
target_entity: GSK3α (Homo sapiens (Human), UniProt P49840)
inequality_operator: =
IC50 (nM): 2670
--
molecule: COCCOCCOCCOc1cc(Nc2nccc(Oc3ccc(NC(=O)Nc4cc(C(F)(F)C(F)(F)F)nn4-c4ccc(C)cc4)c4ccccc34)n2)cc(OC)c1
target_entity: GSK3α (Homo sapiens (Human), UniProt P49840)
inequality_operator: =
IC50 (nM): 9540
--
molecule: COCCOCCOCCOc1cc(Nc2nccc(Oc3ccc(NC(=O)Nc4cc(C(C)C)nn4-c4ccc(C)cc4)c4ccccc34)n2)cc(OC)c1
target_entity: GSK3α (Homo sapiens (Human), UniProt P49840)
inequality_operator: >
IC50 (nM): 8920
--
molecule: COCCOCCOCCOc1cc(Nc2nccc(Oc3ccc(NC(=O)Nc4cc(C(C)(C)C)nn4-c4ccc(C)cc4)c4ccccc34)n2)cc(OC)c1Cl
target_entity: GSK3α (Homo sapiens (Human), UniProt P49840)
inequality_operator: >
IC50 (nM): 10000
--
molecule: COc1ccc(-n2nc(C(C)(C)C)cc2NC(=O)Nc2ccc(Oc3ccnc(Nc4cccc(S(=O)(=O)C5CC5)c4)n3)c3ccccc23)cn1
target_entity: GSK3α (Homo sapiens (Human), UniProt P49840)
inequality_operator: =
IC50 (nM): 258
--
molecule: COCCOCCOCCOCCOCCOCCOCCOc1cc(Nc2nccc(Oc3ccc(NC(=O)Nc4cc(C(C)(C)C)nn4-c4ccc(C)cc4)c4ccccc34)n2)cc(OC)c1
target_entity: GSK3α (Homo sapiens (Human), UniProt P49840)
inequality_operator: =
IC50 (nM): 1330
--
molecule: COc1cc(Nc2nccc(Oc3ccc(NC(=O)Nc4cc(C(C)(C)C)nn4-c4ccc(C)cc4)c(Cl)c3Cl)n2)cc(OCCOCCOCCO)c1
target_entity: GSK3α (Homo sapiens (Human), UniProt P49840)
inequality_operator: =
IC50 (nM): 7740
--
molecule: COc1ccc(-n2nc(C(C)(C)C)cc2NC(=O)Nc2ccc(Oc3ccnc(Nc4cccc(OS(C)(=O)=O)c4)n3)c3ccccc23)cn1
target_entity: GSK3α (Homo sapiens (Human), UniProt P49840)
inequality_operator: =
IC50 (nM): 2540
--
molecule: Cc1ccc(-n2nc(C(C)(C)C)cc2NC(=O)Nc2ccc(Oc3ccnc(Nc4cccc(S(=O)(=O)C5CC5)c4)n3)c3ccccc23)cc1
target_entity: GSK3α (Homo sapiens (Human), UniProt P49840)
inequality_operator: =
IC50 (nM): 172
--
molecule: COCCOCCOCCOc1cc(Nc2nccc(Oc3ccc(NC(=O)Nc4cc(C(C)(C)C(F)(F)F)nn4-c4ccc(C)cc4)c4ccccc34)n2)cc(OC)c1
target_entity: GSK3α (Homo sapiens (Human), UniProt P49840)
inequality_operator: =
IC50 (nM): 8170
--
molecule: COc1cc(Nc2nccc(Oc3ccc(NC(=O)Nc4cc(C(C)(C)C)nn4-c4ccc(OC)nc4)c4ccccc34)n2)cc(S(=O)(=O)C2CC2)c1
target_entity: GSK3α (Homo sapiens (Human), UniProt P49840)
inequality_operator: =
IC50 (nM): 3800
--
molecule: COCCOCCOCCOc1cc(Cl)cc(Nc2nccc(Oc3ccc(NC(=O)Nc4cc(C(C)(C)C)nn4-c4ccc(C)cc4)c4ccccc34)n2)c1
target_entity: GSK3α (Homo sapiens (Human), UniProt P49840)
inequality_operator: >
IC50 (nM): 10000
--
molecule: COCCOCCOCCOc1cc(Nc2nccc(Oc3ccc(NC(=O)Nc4cc(C(C)(C)C)nn4-c4ccc(OC)nc4)c4ccccc34)n2)cc(OC)c1
target_entity: GSK3α (Homo sapiens (Human), UniProt P49840)
inequality_operator: =
IC50 (nM): 5440
--
molecule: COc1cc(Nc2nccc(Oc3ccc(NC(=O)Nc4cc(C(C)(C)C)nn4-c4ccc(C)cc4)c(Cl)c3Cl)n2)cc(OCCCN2CCOCC2)c1
target_entity: GSK3α (Homo sapiens (Human), UniProt P49840)
inequality_operator: >
IC50 (nM): 10000
--
molecule: COc1ccc(-n2nc(C(C)(C)C)cc2NC(=O)Nc2ccc(Oc3ccnc(Nc4cccc([S+]([O-])C5CC5)c4)n3)c3ccccc23)cn1 (centres unmarked)
target_entity: GSK3α (Homo sapiens (Human), UniProt P49840)
inequality_operator: =
IC50 (nM): 125
--
molecule: COc1cc(N=S(C)(C)=O)cc(Nc2nccc(Oc3ccc(NC(=O)Nc4cc(C(C)C)nn4-c4ccc(C)cc4)c(Cl)c3Cl)n2)c1
target_entity: GSK3α (Homo sapiens (Human), UniProt P49840)
inequality_operator: =
IC50 (nM): 426
--
molecule: C#Cc1cc(Nc2nccc(Oc3ccc(NC(=O)Nc4cc(C(C)(C)C)nn4-c4ccc(C)cc4)c4ccccc34)n2)cc(OCCOCCOCCOC)c1
target_entity: GSK3α (Homo sapiens (Human), UniProt P49840)
inequality_operator: >
IC50 (nM): 10000
--
molecule: COc1cc(Nc2nccc(Oc3ccc(NC(=O)Nc4cc(C(C)(C)C)nn4-c4ccc(C)cc4)c4ccccc34)n2)cc(SCCO)c1
target_entity: GSK3α (Homo sapiens (Human), UniProt P49840)
inequality_operator: =
IC50 (nM): 1230
--
molecule: COCCOCCOCCOc1cc(Nc2nccc(Oc3ccc(NC(=O)Nc4cc(C(C)C)nn4-c4ccc(C)cc4)c4ncccc34)n2)cc(OC)c1
target_entity: GSK3α (Homo sapiens (Human), UniProt P49840)
inequality_operator: >
IC50 (nM): 10000
--
molecule: COc1ccc(-n2nc(C(C)(C)C)cc2NC(=O)Nc2ccc(Oc3ccnc(Nc4cccc(N=S(C)(C)=O)c4)n3)c3ccccc23)cn1
target_entity: GSK3α (Homo sapiens (Human), UniProt P49840)
inequality_operator: =
IC50 (nM): 1850
